Sourced from the RNAGym collection of RNA variant scans (doi:10.1126/science.aae0568)

B1: tRNA (parent)
chain: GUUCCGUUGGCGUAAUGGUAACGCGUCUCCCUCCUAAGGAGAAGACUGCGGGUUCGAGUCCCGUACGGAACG

Variants of: B1
assay_method_text: yeast fitness relative to wild type (ratio to wild type); higher = fitter; tRNA-Arg(CCU), competitive growth, 37 C, YPD
Fewer inactive variants are shown than the library holds.

| mutation_descriptor | yeast fitness |
| --- | --- |
| U16C A20U C30U G39C A45G A69C | 0.592 |
| C29G C46U C66U | 0.606 |
| U32G G67C | 0.59 |
| C27G A57G | 0.608 |
| U2C G6A G23A C27U A45C C60A | 0.605 |
| U2G A15U C62A | 0.613 |
